Listing of entries alongside the reported shrunken log2 fold change.
Tested on: Escherichia coli TOP10
experimental_details: shrunken log2 fold change of peptide-encoding DNA abundance (4.5 h post-induction vs induction); higher = less antimicrobial activity (less host growth inhibition)
stated_conditions: time post-induction: 4.5 h; library: site-saturation at positions 5, 18, 19, 20
property_label: shrunken log2 fold change

[
  {
    "polymer_sequence": "RRIRMRPPRLPRPRPRPTDAPRP",
    "reported_value": 0.741
  },
  {
    "polymer_sequence": "RRIRGRPPRLPRPRPRPLERPRP",
    "reported_value": 0.577
  },
  {
    "polymer_sequence": "RRIRCRPPRLPRPRPRPRWEPRP",
    "reported_value": 0.342
  },
  {
    "polymer_sequence": "RRIRKRPPRLPRPRPRPFDWPRP",
    "reported_value": 0.243
  },
  {
    "polymer_sequence": "RRIRGRPPRLPRPRPRPEMHPRP",
    "reported_value": 0.242
  },
  {
    "polymer_sequence": "RRIRWRPPRLPRPRPRPPRDPRP",
    "reported_value": 0.661
  },
  {
    "polymer_sequence": "RRIRARPPRLPRPRPRPFSDPRP",
    "reported_value": -0.169
  },
  {
    "polymer_sequence": "RRIRARPPRLPRPRPRPWWEPRP",
    "reported_value": 0.37
  },
  {
    "polymer_sequence": "RRIRERPPRLPRPRPRPTSTPRP",
    "reported_value": -0.319
  },
  {
    "polymer_sequence": "RRIRFRPPRLPRPRPRPFADPRP",
    "reported_value": -0.0172
  },
  {
    "polymer_sequence": "RRIRTRPPRLPRPRPRPPINPRP",
    "reported_value": -0.338
  },
  {
    "polymer_sequence": "RRIRQRPPRLPRPRPRPRGQPRP",
    "reported_value": 0.726
  },
  {
    "polymer_sequence": "RRIRDRPPRLPRPRPRPGKPPRP",
    "reported_value": 0.0599
  },
  {
    "polymer_sequence": "RRIRNRPPRLPRPRPRPKLCPRP",
    "reported_value": 0.163
  },
  {
    "polymer_sequence": "RRIRNRPPRLPRPRPRPIIKPRP",
    "reported_value": -0.463
  }
]

###

Tested on: Escherichia coli TOP10;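 further: peptides expressed intracellularly from a pBAD plasmid library in pooled LB shake-flask culture, induced with 0.3% L-arabinose, DNA abundance read by NGS, three biological replicates, DESeq2 with apeglm shrinkage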
experimental_details: shrunken log2 fold change of peptide-encoding DNA abundance (4.5 h post-induction vs induction); higher = less antimicrobial activity (less host growth inhibition)
stated_conditions: time post-induction: 4.5 h; library: site-saturation at positions 5, 18, 19, 20
property_label: shrunken log2 fold change

[
  {
    "polymer_sequence": "RRIRARPPRLPRPRPRPGIQPRP",
    "reported_value": -0.041
  },
  {
    "polymer_sequence": "RRIRHRPPRLPRPRPRPQMEPRP",
    "reported_value": -0.00192
  },
  {
    "polymer_sequence": "RRIRTRPPRLPRPRPRPHSYPRP",
    "reported_value": -1.23
  },
  {
    "polymer_sequence": "RRIRKRPPRLPRPRPRPHWDPRP",
    "reported_value": 0.0835
  },
  {
    "polymer_sequence": "RRIRRRPPRLPRPRPRPHICPRP",
    "reported_value": -0.0887
  },
  {
    "polymer_sequence": "RRIRPRPPRLPRPRPRPGDDPRP",
    "reported_value": -0.292
  },
  {
    "polymer_sequence": "RRIRFRPPRLPRPRPRPWKMPRP",
    "reported_value": -0.211
  },
  {
    "polymer_sequence": "RRIRCRPPRLPRPRPRPWIFPRP",
    "reported_value": -0.159
  }
]
